Tested on: 616215-338-R-J1-PDC tumor spheroids, viability
Assay: Anticancer human tumor 616215-338-R-J1-PDC patient-derived colon adenocarcinoma cell line growth inhibition [GQUAD]
Conditions: curve of first compound; second compound 0.0316 µM; spheroids with HUVEC and MSC
Description: DNA G-quadruplex Stabilizer Agents in Combinations in Complex Spheroids A high-throughput screen of multi-cell type tumor spheroids was designed to identify active combinations of DNA G-quadruplex stabilizer agents and targeted small molecules. […] Compounds. […] If the clinical Cmax for an agent had not been determined, the highest concentration tested was 10 microM. […]
# maps each entry to its IC50

query: Value lookup for IC50; key = CC(=O)O[C@H]1C(=O)[C@@]2(C)[C@H]([C@H](OC(=O)c3ccccc3)[C@]3(O)C[C@H](OC(=O)[C@H](O)[C@@H](NC(=O)c4ccccc4)c4ccccc4)C(C)=C1C3(C)C)[C@]1(OC(C)=O)CO[C@@H]1C[C@@H]2O + Cc1[nH]c2ccc(F)cc2c1-c1nc2c3cccnc3c3ncccc3c2[nH]1
result: < 0.0316 µM

query: Quick one: IC50 for COc1ncnc(C2CC2)c1-c1ncc2cnn(Cc3ccc(-c4nc(C(F)(F)F)cn4C(C)C)cc3)c2n1 + Cc1cnc(CNC(=O)c2c(=O)c3ccc(N4CCCN(C)CC4)nc3n3c2sc2ccccc23)cn1 ?
result: > 10 µM

====

Test system: 616215-338-R-J1-PDC tumor spheroids, viability
Experiment: Anticancer human tumor 616215-338-R-J1-PDC cell line growth inhibition [GQUAD];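 note: spheroids exposed to agents for 7 days before readout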;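 for viability, T/C: percent viability relative to DMSO vehicle control wells taken as 100%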
Settings: second compound 0.316 µM; first compound 0.316 µM; stronger effect = lower value; spheroids with HUVEC and MSC
ENDPOINT NAME: viability, T/C (%)
Express the result in % but write the number alone.

Please review the entries below; each comes with its answer.
# COMPOUND, ENDPOINT NAME, REPORTED RESULT
records = [
    ("Cn1ncnc1[C@H]1c2n[nH]c(=O)c3cc(F)cc(c23)N[C@@H]1c1ccc(F)cc1 + Cc1cnc(CNC(=O)c2c(=O)c3ccc(N4CCCN(C)CC4)nc3n3c2sc2ccccc23)cn1", "viability, T/C", 29.5),
    ("C=CCn1c(=O)c2cnc(Nc3ccc(N4CCN(C)CC4)cc3)nc2n1-c1cccc(C(C)(C)O)n1 + Cc1[nH]c2ccc(F)cc2c1-c1nc2c3cccnc3c3ncccc3c2[nH]1", "viability, T/C", 47.5),
]

Could you now consider this next compound?
query: Can you share its viability, T/C? I mean this compound: CCc1c2c(nc3ccc(O)cc13)-c1cc3c(c(=O)n1C2)COC(=O)[C@]3(O)CC + Cc1[nH]c2ccc(F)cc2c1-c1nc2c3cccnc3c3ncccc3c2[nH]1
result: 13.8

====

// reported viability, T/C for each item listed
System: 616215-338-R-J1-PDC tumor spheroids, viability
Test: Anticancer human tumor 616215-338-R-J1-PDC cell line growth inhibition [GQUAD];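 note: spheroids exposed to agents for 7 days before readout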;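 for viability, T/C: percent viability relative to DMSO vehicle control wells taken as 100%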
Conditions: second compound 0.1 µM; first compound 1 µM; stronger effect = lower value; spheroids with HUVEC and MSC
Output spec: scalar in %, unitless text.

Illustrative cases are given below, each with its answer.
# MOLECULE, SCALE UNIT, REPORTED RESULT
data = [
    ("CCCS(=O)(=O)Nc1ccc(F)c(C(=O)c2c[nH]c3ncc(-c4ccc(Cl)cc4)cc23)c1F + Cc1cnc(CNC(=O)c2c(=O)c3ccc(N4CCCN(C)CC4)nc3n3c2sc2ccccc23)cn1", "%", 48.5),
    ("CC(C)n1c(=O)n(C)c2cnc3cc(F)c(-c4ccc(OCCCN5CCCCC5)nc4)cc3c21 + Cc1cnc(CNC(=O)c2c(=O)c3ccc(N4CCCN(C)CC4)nc3n3c2sc2ccccc23)cn1", "%", 34),
    ("O=C(NO)c1cnc(N2CCN(S(=O)(=O)c3ccc4ccccc4c3)CC2)nc1 + Cc1cnc(CNC(=O)c2c(=O)c3ccc(N4CCCN(C)CC4)nc3n3c2sc2ccccc23)cn1", "%", 0.37),
    ("COc1cccc2c1C(=O)c1c(O)c3c(c(O)c1C2=O)CC(O)(C(=O)CO)CC3OC1CC(N)C(O)C(C)O1 (centres undefined) + Cc1cnc(CNC(=O)c2c(=O)c3ccc(N4CCCN(C)CC4)nc3n3c2sc2ccccc23)cn1", "%", 39.2),
    ("O=C(NO)c1cnc(N2CCN(S(=O)(=O)c3ccc4ccccc4c3)CC2)nc1 + Cc1[nH]c2ccc(F)cc2c1-c1nc2c3cccnc3c3ncccc3c2[nH]1", "%", 1.07),
]

query: Would you kindly share the measured viability, T/C for C=CC(=O)N1CCN(c2nc(=O)n(-c3c(C)ccnc3C(C)C)c3nc(-c4c(O)cccc4F)c(F)cc23)C(C)C1 (centres undefined) + Cc1cnc(CNC(=O)c2c(=O)c3ccc(N4CCCN(C)CC4)nc3n3c2sc2ccccc23)cn1 ?
result: 64

query: Give its viability, T/C value. Item: C=CCn1c(=O)c2cnc(Nc3ccc(N4CCN(C)CC4)cc3)nc2n1-c1cccc(C(C)(C)O)n1 + Cc1[nH]c2ccc(F)cc2c1-c1nc2c3cccnc3c3ncccc3c2[nH]1
result: 28.4

query: Can you look up the measured viability, T/C of Nc1ccn(C2OC(CO)C(O)C2(F)F)c(=O)n1 (centres undefined) + Cc1[nH]c2ccc(F)cc2c1-c1nc2c3cccnc3c3ncccc3c2[nH]1 for me?
result: 12.9

query: Param item = CC(C)(O)C1CCC(Nc2ccc3ncc(-c4cccc(C(F)(F)F)c4)n3n2)CC1 (centres undefined) + CN(C)c1ccc(Nc2c3ccc(NC(=O)CCN4CCCC4)cc3nc3cc(NC(=O)CCN4CCCC4)ccc23)cc1 ; retrieve measured viability, T/C.
result: 32.7

====

Test system: 616215-338-R-J1-PDC tumor spheroids, viability
Experiment: Anticancer human tumor 616215-338-R-J1-PDC cell line growth inhibition [GQUAD];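 note: spheroids exposed to agents for 7 days before readout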
Conditions: curve of first compound; second compound 10 µM; spheroids with HUVEC and MSC
pIC50: −log10 of the molar value.
ENDPOINT NAME: pIC50

# COMPOUND, REPORTED RESULT
rows = [
    ("CC(=O)O[C@H]1C(=O)[C@@]2(C)[C@H]([C@H](OC(=O)c3ccccc3)[C@]3(O)C[C@H](OC(=O)[C@H](O)[C@@H](NC(=O)c4ccccc4)c4ccccc4)C(C)=C1C3(C)C)[C@]1(OC(C)=O)CO[C@@H]1C[C@@H]2O + Cc1cnc(CNC(=O)c2c(=O)c3ccc(N4CCCN(C)CC4)nc3n3c2sc2ccccc23)cn1", "> 7.50"),
    ("C=CCn1c(=O)c2cnc(Nc3ccc(N4CCN(C)CC4)cc3)nc2n1-c1cccc(C(C)(C)O)n1 + Cc1cnc(CNC(=O)c2c(=O)c3ccc(N4CCCN(C)CC4)nc3n3c2sc2ccccc23)cn1", "> 7.50"),
]

// moving on: another record for pIC50
query: # lookup: pIC50 of COc1cc(C2c3cc4c(cc3C(OC3OC5COC(C)OC5C(O)C3O)C3COC(=O)C23)OCO4)cc(OC)c1O (stereo not drawn) + Cc1cnc(CNC(=O)c2c(=O)c3ccc(N4CCCN(C)CC4)nc3n3c2sc2ccccc23)cn1
result: > 7.50

====

Listed next: entries and their corresponding viability, T/C.
Test system: 616215-338-R-J1-PDC tumor spheroids, viability
Assay: Anticancer human tumor 616215-338-R-J1-PDC cell line growth inhibition [GQUAD];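 note: spheroids exposed to agents for 7 days before readout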;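 for viability, T/C: percent viability relative to DMSO vehicle control wells taken as 100%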
Conditions: second compound 10 µM; first compound 0.316 µM; stronger effect = lower value; spheroids with HUVEC and MSC
The response must be a number in % with no trailing unit.

query: Lookup: viability, T/C / 616215-338-R-J1-PDC tumor spheroids, viability / O=c1[nH]cc(F)c(=O)[nH]1 + Cc1cnc(CNC(=O)c2c(=O)c3ccc(N4CCCN(C)CC4)nc3n3c2sc2ccccc23)cn1
result: 25.6

query: Notebook entry, 616215-338-R-J1-PDC tumor spheroids, viability assay: viability, T/C of CC(C)n1c(=O)n(C)c2cnc3cc(F)c(-c4ccc(OCCCN5CCCCC5)nc4)cc3c21 + CN(C)c1ccc(Nc2c3ccc(NC(=O)CCN4CCCC4)cc3nc3cc(NC(=O)CCN4CCCC4)ccc23)cc1 = ?
result: 55.6

query: Fill in the recorded viability, T/C for this molecule, with 616215-338-R-J1-PDC tumor spheroids, viability as test system: CC(C)(O)C1CCC(Nc2ccc3ncc(-c4cccc(C(F)(F)F)c4)n3n2)CC1 (stereo not drawn) + CN(C)c1ccc(Nc2c3ccc(NC(=O)CCN4CCCC4)cc3nc3cc(NC(=O)CCN4CCCC4)ccc23)cc1
result: 63.8

====

Tested on: 616215-338-R-J1-PDC tumor spheroids, viability
Test: Anticancer human tumor 616215-338-R-J1-PDC cell line growth inhibition [GQUAD];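 note: spheroids exposed to agents for 7 days before readout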
Conditions: curve of first compound; second compound 0.0316 µM; spheroids with HUVEC and MSC
pIC50: −log10 of the molar value.
ENDPOINT NAME: pIC50

Completed entries (count: 2):
# MOLECULE, TARGET OR SYSTEM, pIC50
data = [
    ("CC(=O)O[C@H]1C(=O)[C@@]2(C)[C@H]([C@H](OC(=O)c3ccccc3)[C@]3(O)C[C@H](OC(=O)[C@H](O)[C@@H](NC(=O)c4ccccc4)c4ccccc4)C(C)=C1C3(C)C)[C@]1(OC(C)=O)CO[C@@H]1C[C@@H]2O + Cc1cnc(CNC(=O)c2c(=O)c3ccc(N4CCCN(C)CC4)nc3n3c2sc2ccccc23)cn1", "616215-338-R-J1-PDC tumor spheroids, viability", "> 7.50"),
    ("COc1ncnc(C2CC2)c1-c1ncc2cnn(Cc3ccc(-c4nc(C(F)(F)F)cn4C(C)C)cc3)c2n1 + CN(C)c1ccc(Nc2c3ccc(NC(=O)CCN4CCCC4)cc3nc3cc(NC(=O)CCN4CCCC4)ccc23)cc1", "616215-338-R-J1-PDC tumor spheroids, viability", "< 5.00"),
]

For the next question, use this molecule.
query: Which pIC50 value belongs to Cn1ncnc1[C@H]1c2n[nH]c(=O)c3cc(F)cc(c23)N[C@@H]1c1ccc(F)cc1 + CN(C)c1ccc(Nc2c3ccc(NC(=O)CCN4CCCC4)cc3nc3cc(NC(=O)CCN4CCCC4)ccc23)cc1 ?
result: < 6.50
